Molecular target: PDE IV (A4B) (Homo sapiens, UniProt P27815)
Construct: Houslay lab, Glasgow/Scotland (obtained from another laboratory)
Sequence (P27815 whole entry): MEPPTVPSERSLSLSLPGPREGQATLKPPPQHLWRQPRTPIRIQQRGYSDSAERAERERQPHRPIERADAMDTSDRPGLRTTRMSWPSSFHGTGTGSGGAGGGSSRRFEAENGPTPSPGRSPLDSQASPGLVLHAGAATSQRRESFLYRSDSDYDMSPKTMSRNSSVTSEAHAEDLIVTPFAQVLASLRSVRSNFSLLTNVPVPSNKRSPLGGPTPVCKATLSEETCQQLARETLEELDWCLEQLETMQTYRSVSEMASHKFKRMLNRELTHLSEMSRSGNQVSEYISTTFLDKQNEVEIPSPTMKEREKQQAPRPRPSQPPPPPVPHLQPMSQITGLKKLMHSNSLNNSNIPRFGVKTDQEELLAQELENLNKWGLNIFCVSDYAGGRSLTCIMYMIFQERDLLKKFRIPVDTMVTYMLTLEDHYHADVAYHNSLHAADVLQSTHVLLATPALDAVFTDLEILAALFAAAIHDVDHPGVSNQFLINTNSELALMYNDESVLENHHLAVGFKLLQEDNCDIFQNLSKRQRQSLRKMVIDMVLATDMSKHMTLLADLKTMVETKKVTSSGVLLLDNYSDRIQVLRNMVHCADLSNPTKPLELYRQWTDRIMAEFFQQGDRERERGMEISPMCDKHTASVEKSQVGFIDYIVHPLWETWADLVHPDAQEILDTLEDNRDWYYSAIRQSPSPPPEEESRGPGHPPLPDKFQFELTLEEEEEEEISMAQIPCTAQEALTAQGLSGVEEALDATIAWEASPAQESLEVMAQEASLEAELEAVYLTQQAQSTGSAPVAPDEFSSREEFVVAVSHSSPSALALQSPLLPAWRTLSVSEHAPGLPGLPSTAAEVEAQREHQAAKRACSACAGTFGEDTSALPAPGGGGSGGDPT
Assay: Stability against PDE IV, HPLC
Format: in vitro ADME
Details: human, Houslay lab), pH 7.2, read-out: half life of hydrolysis
Readout Type: half-life (min)
Field format: number, assumed min, no unit text.

// query For the compound shown here, Nc1ncnc2c1ncn2[C@@H]1O[C@@H]2COP(=O)(O)O[C@H]2[C@H]1O [cAMP, cyclic adenosine-3′,5′-monophosphate, reference compound] , give the reported half-life.
// result 5
